Exercise: state measured IC50 for each of the molecules provided.
molecular target: Pilz-tyrosinase; test: Tyrosinase assay (inhibition of the enzyme tyrosinase, L-DOPA substrate, optical density at 450 nm); settings: Tyrosinase 10 U, L-DOPA 4 mM, 1 h 37°C
The reply should contain only the number, in µM.

Query: Respond only with IC50 recorded for "c1ccc(CN2CCNCC2)nc1"
Reply: 553

Query: Respond only with IC50 recorded for "CCN1CCN(Cc2ccc(O)cc2O)CC1"
Reply: 263

Query: Respond only with IC50 recorded for "Oc1ccc(CN2CCOCC2)c(O)c1"
Reply: 78

* * *

target: Pilz-tyrosinase; test: Tyrosinase assay (inhibition of the enzyme tyrosinase, L-DOPA substrate, optical density at 450 nm); details: Tyrosinase 10 U, L-DOPA 4 mM, 1 h 37°C
Classify: True when IC50 is strictly less than 200 µM; False when IC50 is not.

Query: Would you kindly verify if IC50 of c1ccc(CN2CCN(Cc3ccc4c(c3)OCO4)CC2)cc1 [Ij] is strictly less than 200 µM?
Reply: True

Query: Would you kindly verify if IC50 of O=c1cc(CO)occ1O [Kojicsäure, reference compound] is strictly less than 200 µM?
Reply: True

Query: Would you kindly verify if IC50 of Oc1cc(O)cc(CN2CCN(Cc3ccccc3)CC2)c1 [Id] is strictly less than 200 µM?
Reply: False

Query: Would you kindly verify if IC50 of c1cc(CN2CCNCC2)ccn1 [IIn, 1-Pydridin-4-ylmethyl-piperazin] is strictly less than 200 µM?
Reply: False

Query: Would you kindly verify if IC50 of CC(C)(C)OC(=O)N1CCN(Cc2ccc(O)cc2O)CC1 [If] is strictly less than 200 µM?
Reply: True

Query: Would you kindly verify if IC50 of Oc1cccc(CN2CCN(Cc3ccccc3)CC2)c1O [Ia] is strictly less than 200 µM?
Reply: True

Query: Would you kindly verify if IC50 of c1cncc(CN2CCNCC2)c1 [IIo, 1-Pyridin-3-ylmethyl-piperazin] is strictly less than 200 µM?
Reply: False

Query: Would you kindly verify if IC50 of c1ccc(CN2CCN(Cc3ccccn3)CC2)cc1 [IIk, 1-Benzyl-4-pyridin-2-ylmethyl-piperazin] is strictly less than 200 µM?
Reply: False

Query: Would you kindly verify if IC50 of COc1ccc(CN2CCN(Cc3ccccc3)CC2)c(OC)c1 [Ii] is strictly less than 200 µM?
Reply: False

Query: Would you kindly verify if IC50 of Oc1ccc(CN2CCN(Cc3ccccc3)CC2)c(O)c1 [Ib] is strictly less than 200 µM?
Reply: True

Data provenance: patent EP1893207B1
